# Tested on: CP215
# Procedure Details: qHTS profiling for inhibitors of Plasmodium falciparum proliferation (AID 504749); also: nearly all actives have a fitted effect of over 60% in size
# Recorded Conditions: P. falciparum in erythrocytes, SYBR Green DNA, 72 h; series mostly up to 28.7 µM
Records with an inconclusive call do not appear. The source made the active and inactive calls. Calls follow the shape of the dose curve; as a rule, active = well fitted inhibition curve with a large enough effect; inconclusive = small, poorly fitted or top-dose-only effect; inactive = flat fitted curve, though single readings scatter.
Outcomes you can answer with include only these: yes = active, no = inactive

Worked cases, answers included:
1. CCC(COC(=O)c1cc(OC)c(OC)c(OC)c1)(c1ccccc1)N(C)C (stereo unspecified) ... no
2. Cc1ncc(CNC(=O)N(CCCl)N=O)c(N)n1 ... no
3. C[C@]12C/C(=C/O)C(=O)C[C@@H]1CC[C@@H]1[C@@H]2CC[C@@]2(C)[C@H]1CC[C@]2(C)O ... no
4. Nc1ccncc1 ... no

# input Kindly provide the recorded test outcome for the following molecule: CC(C)CC(N(C)C)C1(c2ccc(Cl)cc2)CCC1 (stereo unspecified)
# output no

# input Please give the result for `Oc1cccc2cccnc12` too.
# output no

# input Please give the result for `CN1C(=S)CN=C(c2ccccc2)c2cc(Cl)ccc21` too.
# output no

# input Please give the result for `CCN(C(C)=O)c1cccc(-c2ccnc3c(C#N)cnn23)c1` too.
# output no

# input Please give the result for `NN=C(N)N` too.
# output no

# input Please give the result for `COc1ccc(C(=O)c2c(C)n(CCN3CCOCC3)c3ccccc23)cc1` too.
# output no

# input Please give the result for `NCCc1cc(O)c(O)cc1O` too.
# output no

# input Please give the result for `CCOP(=S)(OCC)Oc1cc(C)nc(C(C)C)n1` too.
# output no

# input Please give the result for `CCOC(=O)C1(c2ccccc2)CCN(CCC(C#N)(c2ccccc2)c2ccccc2)CC1` too.
# output yes

# input Please give the result for `Oc1ccccc1-c1ccccc1` too.
# output no

# input Please give the result for `O=C(O)c1ccc2[nH]cc(CCCCN3CC=C(c4ccccc4)CC3)c2c1` too.
# output no

# input Please give the result for `CN(C)CCc1ccc(O)cc1` too.
# output no

# input Please give the result for `NP(N)(=O)NC(=O)c1ccc(F)cc1` too.
# output no

# input Please give the result for CCCC(C)(COC(N)=O)COC(=O)NC(C)C (stereo unspecified) too.
# output no

# input Please give the result for `COc1ccccc1N1CCNCC1` too.
# output no

# input Please give the result for `CCN(CC)CCN1C(=O)CN=C(c2ccccc2F)c2cc(Cl)ccc21` too.
# output no

# input Please give the result for `C=C1CC[C@@]2(O)[C@H]3Cc4ccc(O)c5c4[C@@]2(CCN3CC2CC2)[C@H]1O5` too.
# output no
